Kindly state hFAP Binding assay k(on) for each of the entries shown.
target: hFAP (M39-A757) (Homo sapiens (Human), UniProt Q12884); test: hFAP binding assay (surface plasmon resonance); conditions: SPR, 20° C., single cycle kinetics
Sequence (Q12884 39-757): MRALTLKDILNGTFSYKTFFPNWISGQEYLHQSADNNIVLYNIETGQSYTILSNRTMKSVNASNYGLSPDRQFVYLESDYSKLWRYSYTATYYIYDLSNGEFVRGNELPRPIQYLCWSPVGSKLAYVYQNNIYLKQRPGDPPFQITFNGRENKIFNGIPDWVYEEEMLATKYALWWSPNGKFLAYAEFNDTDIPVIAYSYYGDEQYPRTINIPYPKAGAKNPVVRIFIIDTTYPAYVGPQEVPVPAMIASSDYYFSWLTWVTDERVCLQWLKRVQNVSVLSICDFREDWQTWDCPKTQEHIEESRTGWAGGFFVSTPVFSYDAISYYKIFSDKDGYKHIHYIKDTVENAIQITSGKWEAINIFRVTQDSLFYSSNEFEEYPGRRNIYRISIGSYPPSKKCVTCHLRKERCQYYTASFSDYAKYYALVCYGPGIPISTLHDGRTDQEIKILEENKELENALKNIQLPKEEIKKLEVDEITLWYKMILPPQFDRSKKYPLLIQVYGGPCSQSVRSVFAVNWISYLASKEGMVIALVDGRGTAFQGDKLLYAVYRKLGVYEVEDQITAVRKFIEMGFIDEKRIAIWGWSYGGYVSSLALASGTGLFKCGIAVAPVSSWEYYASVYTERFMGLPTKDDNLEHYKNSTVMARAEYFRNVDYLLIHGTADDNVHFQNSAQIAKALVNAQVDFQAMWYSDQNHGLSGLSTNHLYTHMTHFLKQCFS
Reply with just the number (in M⁻¹ s⁻¹).

Sure, the documented hFAP Binding assay k(on) for N#C[C@@H]1CSCN1C(=O)CNC(=O)c1ccnc2ccc(N3CC(Cc4ccc(Cl)cc4)C3)cc12 is 3100000

Sure, the documented hFAP Binding assay k(on) for N#C[C@@H]1CSCN1C(=O)CNC(=O)c1ccnc2ccc(N3CC(F)(F)C3)cc12 is 2100000

Sure, the documented hFAP Binding assay k(on) for COC[C@@H]1[C@@H](C)OCCN1c1ccc2nccc(C(=O)NCC(=O)N3CSC[C@H]3C#N)c2c1 is 690000

Sure, the documented hFAP Binding assay k(on) for N#C[C@@H]1CSCN1C(=O)CNC(=O)c1ccnc2ccc(N3C4CCCC3COC4)cc12 is 730000

Sure, the documented hFAP Binding assay k(on) for Cc1ccn(-c2ccc3nccc(C(=O)NCC(=O)N4CSC[C@H]4C#N)c3c2)c1 is 1100000

Sure, the documented hFAP Binding assay k(on) for CC1(C)COCCN1c1ccc2nccc(C(=O)NCC(=O)N3CSC[C@H]3C#N)c2c1 is 1900000

Sure, the documented hFAP Binding assay k(on) for C[C@@H]1CN(c2ccc3nccc(C(=O)NCC(=O)N4CSC[C@H]4C#N)c3c2)C[C@H](C)[C@]1(C)O is 740000

Sure, the documented hFAP Binding assay k(on) for C[C@@H]1CN(c2ccc3nccc(C(=O)NCC(=O)N4CSC[C@H]4C#N)c3c2)C[C@@H](C)O1 is 5400000

Sure, the documented hFAP Binding assay k(on) for N#C[C@@H]1CSCN1C(=O)CNC(=O)c1ccnc2ccc(N3CC(F)(c4ccccc4)C3)cc12 is 250000

Sure, the documented hFAP Binding assay k(on) for C[C@@H]1COC[C@H](C)N1c1cc2c(C(=O)NCC(=O)N3CSC[C@H]3C#N)ccnc2cc1Br is 3000000

Sure, the documented hFAP Binding assay k(on) for N#C[C@@H]1CSCN1C(=O)CNC(=O)c1ccnc2ccc(N3CC(C(F)(F)F)C3)cc12 is 1300000

Sure, the documented hFAP Binding assay k(on) for C[C@H]1CN(c2ccc3nccc(C(=O)NCC(=O)N4CSC[C@H]4C#N)c3c2)C[C@H](C)O1 is 880000

Sure, the documented hFAP Binding assay k(on) for N#C[C@@H]1CSCN1C(=O)CNC(=O)c1ccnc2ccc(N3CC4C(C3)C4(F)F)cc12 (stereo partly drawn) is 1100000

Sure, the documented hFAP Binding assay k(on) for C[C@H]1CCN(c2ccc3nccc(C(=O)NCC(=O)N4CSC[C@H]4C#N)c3c2)C1=O (single isomer, unassigned) is 1800000

Sure, the documented hFAP Binding assay k(on) for C[C@@H]1CCCN1c1ccc2nccc(C(=O)NCC(=O)N3CSC[C@H]3C#N)c2c1 is 5900000

====

assay: Metabolic stability in human liver microsomes (HLM); details: human, HLM CLint, n = 1 or average of n = 2-3
readout: microsomal CLint (µL/min/mg)
Reply with just the number (in µL/min/mg).

Sure, the documented microsomal CLint for N#C[C@@H]1CSCN1C(=O)CNC(=O)c1ccnc2ccc(N3CCC(F)(F)CC3)cc12 is 63

Sure, the documented microsomal CLint for Cc1ncccc1-c1ccc2nccc(C(=O)NCC(=O)N3CSC[C@H]3C#N)c2c1 is 27

Sure, the documented microsomal CLint for N#C[C@@H]1CSCN1C(=O)CNC(=O)c1ccnc2ccc(N3C[C@@H]4CCC[C@@H]43)cc12 (mixture of isomers) is 140

Sure, the documented microsomal CLint for N#C[C@@H]1CSCN1C(=O)CNC(=O)c1ccnc2ccc(N3C[C@H](F)[C@@H](F)C3)cc12 is 31

Sure, the documented microsomal CLint for CC(C)C1(O)CCN(c2ccc3nccc(C(=O)NCC(=O)N4CSC[C@H]4C#N)c3c2)CC1 is 28

Sure, the documented microsomal CLint for N#C[C@@H]1CSCN1C(=O)CNC(=O)c1ccnc2ccc(-c3ccc(F)cn3)cc12 is 14
